Molecular target: human iNOS (Homo sapiens)
Assay: DAN assay of nitric oxide production (hiNOS)
Conditions: enzyme expressed in HEK293 cells transiently transfected with human iNOS
Entries and their EC50 values follow.

IN: For the molecule Cc1ncsc1C(=O)N(Cc1cc(=O)[nH]c2c(F)cccc12)c1ccc(F)c(Cl)c1 , give its measured EC50 value.
OUT: ≤ 5 µM

IN: Specify reported EC50 for the molecule shown: O=C(c1cnccn1)N(Cc1cc(=O)[nH]c2ccccc12)c1ccccc1
OUT: > 5 µM

IN: Consider the molecule CC(C)C(=O)N(Cc1cc(=O)[nH]c2c(F)cccc12)c1cccc(Cl)c1 . State its measured EC50.
OUT: > 5 µM

* * *

EC50 values by entry
Molecular target: human iNOS (Homo sapiens, UniProt P35228)
Sequence (P35228 whole entry): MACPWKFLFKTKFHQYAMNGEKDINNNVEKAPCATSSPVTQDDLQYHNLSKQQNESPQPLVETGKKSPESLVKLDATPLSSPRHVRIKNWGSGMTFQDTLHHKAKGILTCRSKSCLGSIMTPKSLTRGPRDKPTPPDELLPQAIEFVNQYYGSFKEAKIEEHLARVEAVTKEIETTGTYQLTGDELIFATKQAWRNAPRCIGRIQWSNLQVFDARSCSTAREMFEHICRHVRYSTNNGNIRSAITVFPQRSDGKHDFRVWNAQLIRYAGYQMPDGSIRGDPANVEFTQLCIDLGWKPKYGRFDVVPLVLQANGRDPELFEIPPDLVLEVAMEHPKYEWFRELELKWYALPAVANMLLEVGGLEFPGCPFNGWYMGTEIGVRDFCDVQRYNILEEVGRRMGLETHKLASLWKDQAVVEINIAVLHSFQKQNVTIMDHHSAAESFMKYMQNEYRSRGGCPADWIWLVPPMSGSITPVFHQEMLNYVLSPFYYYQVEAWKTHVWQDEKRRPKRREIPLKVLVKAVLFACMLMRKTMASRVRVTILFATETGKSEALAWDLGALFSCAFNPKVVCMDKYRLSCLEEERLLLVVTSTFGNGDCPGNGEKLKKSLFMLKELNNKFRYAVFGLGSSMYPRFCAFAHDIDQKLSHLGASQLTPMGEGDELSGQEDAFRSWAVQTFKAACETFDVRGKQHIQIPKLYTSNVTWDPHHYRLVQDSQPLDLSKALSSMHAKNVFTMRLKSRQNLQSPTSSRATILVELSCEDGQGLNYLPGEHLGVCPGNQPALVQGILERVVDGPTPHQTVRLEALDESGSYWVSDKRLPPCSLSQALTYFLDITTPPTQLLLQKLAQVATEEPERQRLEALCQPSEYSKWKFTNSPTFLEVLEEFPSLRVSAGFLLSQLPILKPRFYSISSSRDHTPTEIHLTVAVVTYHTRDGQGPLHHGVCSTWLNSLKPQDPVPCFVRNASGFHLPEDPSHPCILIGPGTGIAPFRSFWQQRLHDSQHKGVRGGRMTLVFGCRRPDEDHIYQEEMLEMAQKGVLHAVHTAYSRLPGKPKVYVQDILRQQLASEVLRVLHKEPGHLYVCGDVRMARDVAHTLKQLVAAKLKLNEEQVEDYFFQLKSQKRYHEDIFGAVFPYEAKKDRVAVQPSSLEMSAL
Test: DAN assay of nitric oxide production (hiNOS)
Conditions: enzyme expressed in HEK293 cells transiently transfected with human iNOS

Take a look at these entries with their results.
compound | study system | EC50
O=c1cc(Cn2c(Cl)nc3ccccc32)c2ccc(F)c(F)c2[nH]1 | human iNOS (Homo sapiens, UniProt P35228) | > 5 µM
Cc1nc(N2CCOCC2)sc1C(=O)N(Cc1cc(=O)[nH]c2ccccc12)c1ccccc1 | human iNOS (Homo sapiens, UniProt P35228) | ≤ 5 µM
Cc1ncsc1C(=O)N(Cc1cc(=O)[nH]c2c(Br)ccc(F)c12)c1cccc(Cl)c1 | human iNOS (Homo sapiens, UniProt P35228) | > 5 µM

IN: Quote human iNOS (Homo sapiens, UniProt P35228) EC50 for entry O=c1cc(Cn2c(-c3c(F)cccc3F)nc3ccccc32)c2ccc(F)c(F)c2[nH]1 .
OUT: > 5 µM

* * *

Target: human iNOS (Homo sapiens, UniProt P35228)
Construct: expressed in transfected cells; host or cells: HEK293
Experiment: DAN assay of nitric oxide production (hiNOS)
Type: cell-based
Details: enzyme expressed in HEK293 cells transiently transfected with human iNOS
parameter measured: EC50

compound | study system | reported measurement
Cc1ncsc1C(=O)N(Cc1cc(=O)[nH]c2c(F)ccc(F)c12)c1cccc(Cl)c1 | human iNOS (Homo sapiens, UniProt P35228) | > 5 µM
O=c1cc(Cn2c(C3CCNCC3)nc3ccccc32)c2ccc(F)c(F)c2[nH]1 | human iNOS (Homo sapiens, UniProt P35228) | > 5 µM
O=c1cc(Cn2c(C3CCCC3)nc3ccccc32)c2ccc(F)c(F)c2[nH]1 | human iNOS (Homo sapiens, UniProt P35228) | ≤ 5 µM

IN: Supply EC50 value. Item: Cc1ncsc1C(=O)N(Cc1cc(=O)[nH]c2c(F)cccc12)c1cccc(C#N)c1
OUT: ≤ 5 µM

* * *

Target: human iNOS (Homo sapiens)
Assay: DAN assay of nitric oxide production (hiNOS)
Conditions: enzyme expressed in HEK293 cells transiently transfected with human iNOS
Reported EC50 values for the following compounds.

# annotated cases, reported EC50 shown
compound | study system | EC50
CC(Cc1nc2ccccc2n1Cc1cc(=O)[nH]c2c(F)c(F)ccc12)C(F)(F)F (racemic) | human iNOS (Homo sapiens) | ≤ 5 µM
O=C(c1cccs1)N(Cc1cc(=O)[nH]c2ccccc12)c1ccccc1 | human iNOS (Homo sapiens) | > 5 µM
O=C(c1ccccc1)N(Cc1cc(=O)[nH]c2ccccc12)c1ccccc1 | human iNOS (Homo sapiens) | > 5 µM
O=c1cc(Cn2c(C3CCCCC3)nc3ccccc32)c2ccc(F)c(F)c2[nH]1 | human iNOS (Homo sapiens) | > 5 µM
O=C(c1ccccn1)N(Cc1cc(=O)[nH]c2ccccc12)c1ccccc1 | human iNOS (Homo sapiens) | > 5 µM

IN: Answer with EC50 of Cc1nc(N2CCN(C)CC2)sc1C(=O)N(Cc1cc(=O)[nH]c2ccccc12)c1ccccc1 measured for human iNOS (Homo sapiens).
OUT: > 5 µM

IN: State recorded EC50 with human iNOS (Homo sapiens), entry COc1ccccc1C(=O)N(Cc1cc(=O)[nH]c2c(F)cccc12)c1cccc(Cl)c1 , no comment.
OUT: > 5 µM

IN: # lookup: human iNOS (Homo sapiens) EC50, key = COc1cccc(N(Cc2cc(=O)[nH]c3c(F)c(F)ccc23)C(=O)c2scnc2C)c1
OUT: ≤ 5 µM

* * *

Measured EC50 by item
Target: human iNOS (Homo sapiens)
Experiment: DAN assay of nitric oxide production (hiNOS)
Conditions: enzyme expressed in HEK293 cells transiently transfected with human iNOS

Look over these answered cases.
molecule | study system | reported measurement
Cc1ncsc1C(=O)N(c1cccc(Cl)c1)C(C)c1cc(=O)[nH]c2c(F)cccc12 (racemic) | human iNOS (Homo sapiens) | ≤ 5 µM
CN(C)c1ccccc1C(=O)N(Cc1cc(=O)[nH]c2c(F)cccc12)c1cccc(Cl)c1 | human iNOS (Homo sapiens) | > 5 µM
COc1ccc2[nH]c(=O)cc(CN(C(=O)c3ccco3)c3ccccc3)c2c1 | human iNOS (Homo sapiens) | ≤ 5 µM

Please look at the following molecule next.
IN: Please list EC50 recorded for the molecule COc1ccc(C(=O)N(Cc2cc(=O)[nH]c3c(F)cccc23)c2cccc(Cl)c2)cc1
OUT: > 5 µM

* * *

Target: UniProt:P35228
Experiment: DAN assay of nitric oxide production (hiNOS)
Conditions: enzyme expressed in HEK293 cells transiently transfected with human iNOS
parameter measured: EC50

Use the examples below as a reference point.
compound | EC50
Cc1ccncc1C(=O)N(Cc1c(F)c(=O)[nH]c2c(F)cccc12)c1cccc(Cl)c1 | ≤ 5 µM
Cc1nc(N(C)C)sc1C(=O)N(Cc1cc(=O)[nH]c2c(F)cccc12)c1ccc(F)c(Cl)c1 | ≤ 5 µM
O=C(c1ccco1)N(Cc1cc(=O)[nH]c2ccccc12)c1ccncc1 | ≤ 5 µM

Now for another entry.
IN: For the compound Cc1ncsc1C(=O)N(Cc1cc(=O)[nH]c2ccccc12)c1ccc(F)c(Cl)c1 , report EC50.
OUT: > 5 µM

* * *

Molecular target: human iNOS (Homo sapiens)
Experiment: DAN assay of nitric oxide production (hiNOS)
Conditions: enzyme expressed in HEK293 cells transiently transfected with human iNOS
# EC50 values compiled below

compound | EC50
O=C(c1ccco1)N(Cc1cc(=O)[nH]c2ccccc12)c1ccccc1 [Example 1] | ≤ 5 µM

IN: Determine from records and report EC50 for Cc1ncsc1C(=O)N(Cc1cc(=O)[nH]c2c(F)c(F)ccc12)c1cccc(C#N)c1 [Example 186]
OUT: ≤ 5 µM

IN: Return value of EC50 for input Cc1ccc(C)c(-c2nc3ccccc3n2Cc2cc(=O)[nH]c3c(F)c(F)ccc23)c1 [Example 243] , no commentary.
OUT: > 5 µM

IN: Identify EC50 associated with the compound Cc1c(-c2ccccc2)nc(C(C)C)n1Cc1cc(=O)[nH]c2c(F)c(F)ccc12 [Example 258]
OUT: > 5 µM

IN: Specify EC50 for Cc1oncc1C(=O)N(Cc1cc2cccc(F)c2[nH]c1=O)c1cccc(Cl)c1 [Example 173] and stop.
OUT: > 5 µM

IN: Tell me its EC50 given O=c1cc(Cn2c(-c3cscn3)nc3ccccc32)c2ccc(F)c(F)c2[nH]1 [Example 193] as the entry.
OUT: > 5 µM

IN: State its EC50 for this compound: O=c1cc(Cn2c(N3CCOCC3)nc3ccccc32)c2ccc(F)c(F)c2[nH]1 [Example 200]
OUT: > 5 µM

IN: Identify measured EC50 associated with CC(C)c1cn(Cc2cc(=O)[nH]c3c(F)c(F)ccc23)c(-c2ccccc2)n1 [Example 254]
OUT: ≤ 5 µM

IN: Please report EC50 for the following compound: Cc1ncsc1C(=O)N(Cc1c(F)c(=O)[nH]c2c(F)c(F)ccc12)c1cccc(Cl)c1 [Example 115]
OUT: ≤ 5 µM

IN: Give the value of EC50 reported for the following: O=c1cc(Cn2c(-c3ccncc3Cl)nc3ccccc32)c2ccc(F)c(F)c2[nH]1 [Example 248]
OUT: ≤ 5 µM

IN: Report EC50 for O=C(c1cccc(F)c1)N(Cc1cc(=O)[nH]c2c(F)cccc12)c1cccc(Cl)c1 [Example 55]
OUT: > 5 µM

IN: Give a short answer stating reported EC50 for CC(C)Cc1nc2ccccc2n1Cc1cc(=O)[nH]c2c(F)c(F)ccc12 [Example 195] .
OUT: ≤ 5 µM

IN: Give the reported EC50 for this compound. Cc1ncsc1-c1nc2ccccc2n1Cc1cc(=O)[nH]c2c(F)c(F)ccc12 [Example 119]
OUT: ≤ 5 µM

IN: Hello, please tell me recorded EC50 for this one: CCC(CC)c1nc2ccccc2n1Cc1cc(=O)[nH]c2c(F)c(F)ccc12 [Example 217]
OUT: ≤ 5 µM

IN: Kindly indicate its recorded EC50. Item: CC(C)c1nn(Cc2cc(=O)[nH]c3c(F)c(F)ccc23)c2ccccc12 [Example 239]
OUT: > 5 µM

IN: Please look at this compound and report its EC50: Cc1ccncc1C(=O)N(Cc1cc2cccc(F)c2[nH]c1=O)c1cccc(Cl)c1 [Example 172]
OUT: > 5 µM

IN: Tell me measured EC50 for O=c1cc(CN(Cc2ccco2)c2ccccc2)c2ccccc2[nH]1 [Example 22] please.
OUT: ≤ 5 µM
